Target Or System: full length mouse TREX1 (Mus musculus, UniProt Q91XB0)
Construct: N-terminally His-Tev tagged full length mouse TREX1; made in house; host or cells: E. coli
Sequence (Q91XB0 1-314): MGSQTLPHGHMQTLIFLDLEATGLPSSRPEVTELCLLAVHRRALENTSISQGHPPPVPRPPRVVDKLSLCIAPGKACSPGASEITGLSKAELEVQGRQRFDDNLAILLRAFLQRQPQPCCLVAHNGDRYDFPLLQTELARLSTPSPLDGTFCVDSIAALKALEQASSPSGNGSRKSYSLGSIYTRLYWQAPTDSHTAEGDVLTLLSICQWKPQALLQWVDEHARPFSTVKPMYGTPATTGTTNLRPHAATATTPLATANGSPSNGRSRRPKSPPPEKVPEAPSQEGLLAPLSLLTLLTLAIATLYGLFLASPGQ
Method: mTREX1 Biochemical Assay (fluorescence, dsDNA substrate degradation)
Condition Description: biochemical, read-out: mTREX1 IC50
pIC50: −log10 of the molar value.
Measured Endpoint: pIC50

Please look at the items below and tell me pIC50 for each one, in order.
1. CC(c1nc(C(=O)Nc2cnoc2)c(O)c(=O)n1C)C(c1cocn1)c1ccccc1C#N (single isomer, unassigned) [Example 50 D1E2]
2. Cc1nn(C)cc1C(c1ccccc1C#N)C(C)c1nc(C(=O)Nc2cnoc2)c(O)c(=O)n1C (single isomer, unassigned) [Example 3 D2E2]

Reply:
["< 8.00", "< 8.00"]

For reference, reported pIC50 for CC(c1nc(C(=O)Nc2cnoc2)c(O)c(=O)n1C)C(c1ccccc1C#N)c1c(C#N)cnn1C (single isomer, unassigned) [Example 52 D1E1] stands at < 8.00

###

Target Or System: full length mouse TREX1 (Mus musculus)
Construct: N-terminally His-Tev tagged full length mouse TREX1; made in house; host or cells: E. coli
Method: mTREX1 Biochemical Assay (fluorescence, dsDNA substrate degradation)
Condition Description: biochemical, read-out: mTREX1 IC50
pIC50: −log10 of the molar value.
For each of the compounds below, state its pIC50.

CC(c1nc(C(=O)Nc2cnoc2)c(O)c(=O)n1C)C(c1cnn(CC(C)(C)O)c1)c1ccccc1C#N (single isomer, unassigned) [Example 36 D1E1] : 8.00 to 9.00

Please look at the items below and tell me pIC50 for each one, in order.
1. CC(c1nc(C(=O)Nc2cnoc2)c(O)c(=O)n1C)C(c1cnn(C)c1)c1cc(F)c(F)cc1Cl (single isomer, unassigned) [Example 28 D2E2]
2. CC(c1nc(C(=O)Nc2cnoc2)c(O)c(=O)n1C)C(c1cnn(CC(F)F)c1)c1cc(F)ccc1C#N (single isomer, unassigned) [Example 102 D1E1]
3. CC(c1nc(C(=O)Nc2cnoc2)c(O)c(=O)n1C)C(c1cn(C)cn1)c1ccccc1C#N (single isomer, unassigned) [Example 39 D2E2]
4. CC(c1nc(C(=O)Nc2cnoc2)c(O)c(=O)n1C)C(c1cnn(C)c1)c1cc(F)c(F)cc1C#N (single isomer, unassigned) [Example 25 D2E2]
5. CC(c1nc(C(=O)Nc2cnoc2)c(O)c(=O)n1C)C(c1cnn(C)c1)c1cccnc1C#N (single isomer, unassigned) [Example 7 D2E2]

Reply:
< 8.00
< 8.00
< 8.00
< 8.00
< 8.00

###

Target Or System: full length human TREX1 (Homo sapiens, UniProt Q9NSU2)
Construct: N-terminally His-Tev tagged full length human TREX1; made in house; host or cells: E. coli
Method: hTREX1 Biochemical Assay (fluorescence, dsDNA substrate degradation)
Condition Description: biochemical, read-out: hTREX1 IC50
For each of the compounds below, state its IC50.

COCCn1ncc(C(c2cc(F)ccc2Cl)C(C)c2nc(C(=O)Nc3cnoc3)c(O)c(=O)n2C)c1C (single isomer, unassigned) [Example 108 D1E2] : > 10 nM
Cc1cnn(C(c2cc(F)ccc2Cl)C(C)c2nc(C(=O)Nc3cnoc3)c(O)c(=O)n2C)c1 (single isomer, unassigned) [Example 144 D1E2] : 1 to 10 nM
CC(c1nc(C(=O)Nc2cnoc2)c(O)c(=O)n1C)C(c1cnn(CC(C)(C)C#N)c1)c1cc(F)ccc1Cl (single isomer, unassigned) [Example 99 D1E1] : 1 to 10 nM
Cc1cnc(C)c(C(c2cc(F)ccc2C#N)C(C)c2nc(C(=O)Nc3cnoc3)c(O)c(=O)n2C)n1 (single isomer, unassigned) [Example 119 D2E2] : > 10 nM

Please look at the items below and tell me IC50 for each one, in order.
1. CC(c1nc(C(=O)Nc2cnoc2)c(O)c(=O)n1C)C(c1cnn(C)c1)c1cc(F)c(F)cc1C#N (single isomer, unassigned) [Example 25 D1E1]
2. CCn1cc(C(c2cc(F)c(F)cc2Cl)C(C)c2nc(C(=O)Nc3cnoc3)c(O)c(=O)n2C)cn1 (single isomer, unassigned) [Example 72 D2E1]

Reply:
1: < 1 nM; 2: > 10 nM

###

For each of the molecules below, state its pIC50.
Target Or System: full length human TREX1 (Homo sapiens)
Construct: N-terminally His-Tev tagged full length human TREX1; made in house; host or cells: E. coli
Method: hTREX1 Biochemical Assay (fluorescence, dsDNA substrate degradation)
Condition Description: biochemical, read-out: hTREX1 IC50
pIC50: −log10 of the molar value.

The cases that follow already have their pIC50 on record.
Cc1ccc(C(c2ccccc2C#N)C(C)c2nc(C(=O)Nc3cnoc3)c(O)c(=O)n2C)cn1 (single isomer, unassigned) [Example 5 D2E2] : 8.00 to 9.00
Cc1ncc(C(c2ccccc2Cl)C(C)c2nc(C(=O)Nc3cnoc3)c(O)c(=O)n2C)nc1C (single isomer, unassigned) [Example 125 D1E1] : < 8.00
CC(c1nc(C(=O)Nc2cnoc2)c(O)c(=O)n1C)C(c1ccccc1Cl)c1nncn1C (single isomer, unassigned) [Example 152 D2E2] : < 8.00

Please look at the items below and tell me pIC50 for each one, in order.
1. CC(c1nc(C(=O)Nc2cnoc2)c(O)c(=O)n1C)C(c1cnn(C)c1)c1cc(F)ccc1C#N (single isomer, unassigned) [Example 14 D1E1]
2. CC(c1nc(C(=O)Nc2cnoc2)c(O)c(=O)n1C)C(c1cnn(CCN2CCNCC2)c1)c1ccccc1C#N (single isomer, unassigned) [Example 31 D1E2]

Reply:
["< 8.00", "< 8.00"]

For reference, reported pIC50 for Cc1cc(C)n(C(c2ccccc2C#N)C(C)c2nc(C(=O)Nc3cnoc3)c(O)c(=O)n2C)n1 (single isomer, unassigned) [Example 137 D1E1] stands at > 9.00

###

Target Or System: full length human TREX1 (Homo sapiens, UniProt Q9NSU2)
Construct: N-terminally His-Tev tagged full length human TREX1; made in house; host or cells: E. coli
Sequence (Q9NSU2 1-314): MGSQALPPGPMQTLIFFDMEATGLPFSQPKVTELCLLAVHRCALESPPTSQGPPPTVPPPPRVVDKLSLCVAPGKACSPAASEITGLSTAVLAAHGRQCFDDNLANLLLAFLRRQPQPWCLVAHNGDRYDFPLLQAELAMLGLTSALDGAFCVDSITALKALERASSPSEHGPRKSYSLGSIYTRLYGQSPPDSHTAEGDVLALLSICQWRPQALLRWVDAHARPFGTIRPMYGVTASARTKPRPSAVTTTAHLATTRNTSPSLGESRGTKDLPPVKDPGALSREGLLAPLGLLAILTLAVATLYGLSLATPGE
Method: hTREX1 Biochemical Assay (fluorescence, dsDNA substrate degradation)
Condition Description: biochemical, read-out: hTREX1 IC50
pIC50: −log10 of the molar value.
Measured Endpoint: pIC50

Please look at the items below and tell me pIC50 for each one, in order.
1. CCn1ncc(C(c2ccc(F)cc2C#N)C(C)c2nc(C(=O)Nc3cnoc3)c(O)c(=O)n2C)c1C (single isomer, unassigned) [Example 65 D2E1]
2. CC(c1nc(C(=O)Nc2cnoc2)c(O)c(=O)n1C)C(c1cnn(CCN2CCNCC2)c1)c1ccccc1C#N (single isomer, unassigned) [Example 31 D1E1]
3. CC(c1nc(C(=O)Nc2cnoc2)c(O)c(=O)n1C)C(c1cnn(CC(C)(C)O)c1)c1ccccc1C#N (single isomer, unassigned) [Example 36 D2E2]
4. CC(c1nc(C(=O)Nc2cnoc2)c(O)c(=O)n1C)C(c1ccccc1Cl)c1cnn(C)c1C#N (single isomer, unassigned) [Example 96 D1E2]
5. CC(c1nc(C(=O)Nc2cnoc2)c(O)c(=O)n1C)C(c1cnn(CCN2CCOCC2)c1)c1ccccc1C#N (single isomer, unassigned) [Example 20 D1E1]
6. Cc1nn(C)cc1C(c1ccccc1C#N)C(c1nc(C(=O)Nc2cnoc2)c(O)c(=O)n1C)C(F)(F)F (single isomer, unassigned) [Example 41 D1E1]

Reply:
8.00 to 9.00
> 9.00
< 8.00
< 8.00
> 9.00
< 8.00

###

Target Or System: hTREX1 (Homo sapiens, UniProt Q9NSU2)
Method: hTREX1 HCT116 Cell Assay (HCT116 dual cells, Lucia luciferase reporter of Type I interferon induction)
Condition Description: TREX1i 4 h before pBR322/BstNI transfection, read after 48 h
Measured Endpoint: IC50

Please look at the items below and tell me IC50 for each one, in order.
1. CC(c1nc(C(=O)Nc2cnoc2)c(O)c(=O)n1C)C(c1ccccc1C#N)c1c[nH]nc1F (single isomer, unassigned) [Example 127 D1E2]
2. CC(c1nc(C(=O)Nc2cnoc2)c(O)c(=O)n1C)C(c1cnn(C)c1)c1cccnc1C#N (single isomer, unassigned) [Example 7 D1E1]
3. Cc1cc(C(c2ccccc2C#N)C(C)c2nc(C(=O)Nc3cnoc3)c(O)c(=O)n2C)ccn1 (single isomer, unassigned) [Example 6 D1E2]
4. COCCn1cc(C(c2ccccc2C#N)C(C)c2nc(C(=O)Nc3cnoc3)c(O)c(=O)n2C)cn1 (single isomer, unassigned) [Example 9 D1E1]
5. CCn1cc(C(c2cc(F)ccc2C#N)C(C)c2nc(C(=O)Nc3cnoc3)c(O)c(=O)n2C)cn1 (single isomer, unassigned) [Example 17 D1E2]
6. CC(c1nc(C(=O)Nc2cnoc2)c(O)c(=O)n1C)C(c1ccccc1Cl)c1nncn1C (single isomer, unassigned) [Example 152 D1E1]

Reply:
1. > 100 nM
2. > 100 nM
3. > 100 nM
4. 10 to 100 nM
5. < 10 nM
6. > 100 nM
